- targetOrSystem: human Gal-3 (hGal-3) (Homo sapiens (Human), UniProt P17931)
- Sequence (P17931 whole entry): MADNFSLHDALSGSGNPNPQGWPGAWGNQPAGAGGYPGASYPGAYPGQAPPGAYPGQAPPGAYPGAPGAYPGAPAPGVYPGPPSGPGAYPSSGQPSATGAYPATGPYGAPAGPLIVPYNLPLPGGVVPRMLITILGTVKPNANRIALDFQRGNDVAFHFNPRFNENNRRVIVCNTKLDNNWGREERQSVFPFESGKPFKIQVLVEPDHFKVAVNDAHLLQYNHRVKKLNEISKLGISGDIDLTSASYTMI
- protocolDescription: competitive binding assay: biotinylated hGal-3 binding to microplate-adsorbed asialofetuin (ASF)
- assayContext: Table 11; read-out: IC50 (Gal-3 inhibition)
experimentalEndpoint: pIC50
Numbers only, as −log10 of the molar value.

{"columns": ["molecule", "targetOrSystem", "pIC50"],
 "data": [
  ["CO[C@@H]1[C@@H](n2cc(-c3cc(F)c(F)c(F)c3)nn2)[C@@H](O)[C@@H](CO)O[C@H]1S[C@@H](c1noc(C2CC2)c1C)C1(O)CCC(F)(F)CC1 [Example 2.44.145S.I.]", "human Gal-3 (hGal-3) (Homo sapiens (Human), UniProt P17931)", 4.95],
  ["CO[C@@H]1[C@@H](n2cc(-c3cc(F)c(F)c(F)c3)nn2)[C@@H](O)[C@@H](CO)O[C@H]1S[C@H](c1nc(C)c(C)nc1C)C1(O)CCC(F)(F)CC1 [Example 2.44.119R.I.]", "human Gal-3 (hGal-3) (Homo sapiens (Human), UniProt P17931)", 7.05],
  ["CO[C@@H]1[C@@H](n2cc(-c3cc(F)c(F)c(F)c3)nn2)[C@@H](O)[C@@H](CO)O[C@H]1S[C@@H](c1nccc(Cl)c1C)C1(O)CCC(F)(F)CC1 [Example 2.44.141S.I.]", "human Gal-3 (hGal-3) (Homo sapiens (Human), UniProt P17931)", 5.46],
  ["CO[C@@H]1[C@@H](n2cc(-c3cc(F)c(F)c(F)c3)nn2)[C@@H](O)[C@@H](CO)O[C@H]1SC(c1ncccc1C)C1(O)CCC2(CCOCC2)CC1 (stereo partly shown) [Example 2.72.126.I]", "human Gal-3 (hGal-3) (Homo sapiens (Human), UniProt P17931)", 6.89],
  ["CO[C@@H]1[C@@H](n2cc(-c3cc(F)c(F)c(F)c3)nn2)[C@@H](O)[C@@H](CO)O[C@H]1SC(c1nccc(Cl)c1Cl)C1(O)CCC(F)(F)CC1 (stereo partly shown) [Example 2.44.143.I.]", "human Gal-3 (hGal-3) (Homo sapiens (Human), UniProt P17931)", 6.85],
  ["CO[C@@H]1[C@@H](n2cc(-c3cc(F)c(F)c(F)c3)nn2)[C@@H](O)[C@@H](CO)O[C@H]1S[C@@H](c1nc(C)ccc1Cl)C1(O)CCC(F)(F)CC1 [Example 2.44.148S.I.]", "human Gal-3 (hGal-3) (Homo sapiens (Human), UniProt P17931)", 5.16],
  ["CO[C@@H]1[C@@H](n2cc(-c3cc(F)c(F)c(F)c3)nn2)[C@@H](O)[C@@H](CO)O[C@H]1S[C@@H](c1ncccc1C)[C@]1(O)CCOC(C)(C)C1 [Example 2.43.126SS.I.]", "human Gal-3 (hGal-3) (Homo sapiens (Human), UniProt P17931)", 5.72],
  ["CO[C@@H]1[C@@H](n2cc(-c3cc(F)c(F)c(F)c3)nn2)[C@@H](O)[C@@H](CO)O[C@H]1SC(c1nc(C)c(C)nc1C)C1(O)CCC(F)(F)CC1 (stereo partly shown) [Example 2.44.119.I.]", "human Gal-3 (hGal-3) (Homo sapiens (Human), UniProt P17931)", 6.59]
]}

# map each molecule to its pIC50
1. CCc1cccnc1[C@H](S[C@@H]1O[C@H](CO)[C@H](O)[C@H](n2cc(-c3cc(F)c(F)c(F)c3)nn2)[C@H]1OC)C1(O)CCC(F)(F)CC1 [Example 2.44.142S.I.]
2. CO[C@@H]1[C@@H](n2cc(-c3cc(F)c(F)c(F)c3)nn2)[C@@H](O)[C@@H](CO)O[C@H]1S[C@H](c1nccc(C(F)(F)F)c1C)C1(O)CCC(F)(F)CC1 [Example 2.44.147R.I.]

Solution:
1. 5.09
2. 6.72

====

- targetOrSystem: human Gal-3 (hGal-3) (Homo sapiens (Human), UniProt P17931)
- protocolDescription: competitive binding assay: biotinylated hGal-3 binding to microplate-adsorbed asialofetuin (ASF)
- assayContext: Gal-3 inhibition; binding of biotinylated hGal-3 to ASF; mean values; read-out: IC50
experimentalEndpoint: log10(IC50) (log10 of the value in nM)
Scale: decimal log of IC50, IC50 in nM.

{"columns": ["compound", "targetOrSystem", "experimentalEndpoint", "valueReported"],
 "data": [
  ["Cc1c(F)cc(-c2cn([C@H]3[C@@H](O)[C@@H](CO)O[C@@H](S[C@H](c4ccccc4C(F)(F)F)C(C)(C)O)[C@@H]3O)nn2)cc1F [Example 3.31.112R.]", "human Gal-3 (hGal-3) (Homo sapiens (Human), UniProt P17931)", "log10(IC50)", 2.18]
]}

Please state log10(IC50) for every compound in the list that follows.
1. Cc1noc(C)c1C(S[C@@H]1O[C@H](CO)[C@H](O)[C@H](n2cc(-c3cc(F)c(F)c(F)c3)nn2)[C@H]1O)C(C)(C)O (some centres unmarked) [Example 2.31.121.]
2. Cc1ccnnc1C(S[C@@H]1O[C@H](CO)[C@H](O)[C@H](n2cc(-c3cc(F)c(F)c(F)c3)nn2)[C@H]1O)C1(O)CCC(F)(F)CC1 (some centres unmarked) [Example 2.44.135.]
3. OC[C@H]1O[C@@H](S[C@@H](c2ncccc2C(F)(F)F)C2(O)CCCC2)[C@H](O)[C@@H](n2cc(-c3cc(F)c(F)c(F)c3)nn2)[C@H]1O [Example 2.38.125S.]
4. CC(C)Cc1ccccc1[C@@H](S[C@@H]1O[C@H](CO)[C@H](O)[C@H](n2cc(-c3cc(F)c(F)c(F)c3)nn2)[C@H]1O)C(C)(C)O [Example 2.31.107R.]
5. CS(=O)(=O)N1CC(O)([C@@H](S[C@@H]2O[C@H](CO)[C@H](O)[C@H](n3cc(-c4cc(F)c(F)c(F)c4)nn3)[C@H]2O)c2ccccc2C(F)(F)F)C1 [Example 2..57.112S.]
6. CCC(O)(CC)[C@H](S[C@@H]1O[C@H](CO)[C@H](O)[C@H](n2cc(-c3cc(F)c(F)c(F)c3)nn2)[C@H]1O)c1conc1C [Example 2.32.120R.]
7. Cc1conc1[C@@H](S[C@@H]1O[C@H](CO)[C@H](O)[C@H](n2cc(-c3cc(F)c(F)c(F)c3)nn2)[C@H]1O)C(C)(C)O [Example 2.31.120R.]

Solution:
1. 2.85
2. 1.85
3. 3.75
4. 2.30
5. 3.76
6. 3.09
7. 2.51

// each compound listed below needs its log10(IC50)
1. Cc1conc1[C@H](S[C@@H]1O[C@H](CO)[C@H](O)[C@H](n2cc(-c3cc(F)c(F)c(F)c3)nn2)[C@H]1O)C1(O)CCS(=O)(=O)CC1 [Example 2.66.120S.]
2. OC[C@H]1O[C@@H](S[C@H](c2ncccc2C(F)(F)F)C2(O)CCCC2)[C@H](O)[C@@H](n2cc(-c3cc(F)c(F)c(F)c3)nn2)[C@H]1O [Example 2.38.125R.]

Solution:
1. 3.66
2. 1.90

Exercise: Request the reported log10(IC50) associated with CC(C)(O)[C@H](S[C@@H]1O[C@H](CO)[C@H](O)[C@H](n2cc(-c3cc(F)c(F)c(F)c3)nn2)[C@H]1O)c1ccccc1-c1ccccc1 [Example 2.31.110R.]
Solution: 2.34

====

Recorded below: pIC50, system UniProt P09382.
Sequence (P09382 whole entry): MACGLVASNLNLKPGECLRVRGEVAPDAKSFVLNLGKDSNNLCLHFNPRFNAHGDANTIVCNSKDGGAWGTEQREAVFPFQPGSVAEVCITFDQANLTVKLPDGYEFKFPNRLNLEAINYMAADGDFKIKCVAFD
Answers are plain numbers, as −log10 of the molar value.

Completed entries (count: 3):
{"columns": ["molecule", "experimentalEndpoint", "valueReported"],
 "data": [
  ["CNS(=O)(=O)N1CCC(O)(C(S[C@@H]2O[C@H](CO)[C@H](O)[C@H](n3cc(-c4cc(F)c(F)c(F)c4)nn3)[C@H]2O)c2ccccc2C(F)(F)F)CC1 (some centres unmarked)", "pIC50", 6.57],
  ["CC(C)c1cccnc1[C@@H](S[C@@H]1O[C@H](CO)[C@H](O)[C@H](n2cc(-c3cc(F)c(F)c(F)c3)nn2)[C@H]1O)C1(O)CCC(F)(F)CC1 [Example 2.44.132R.]", "pIC50", 7.30],
  ["CC(C)(O)[C@H](S[C@@H]1O[C@H](CO)[C@H](O)[C@H](n2cc(-c3cc(F)c(F)c(F)c3)nn2)[C@H]1O)c1ccccc1C1CC1 [Example 2.31.106R.]", "pIC50", 6.68]
]}

List reported pIC50 for each of these molecules:
1. CC(C)(O)[C@@H](S[C@@H]1O[C@H](CO)[C@H](O)[C@H](n2cc(-c3cc(F)c(F)c(F)c3)nn2)[C@H]1O)c1cccc2ccccc12 [Example 2.31.115S.]
2. OC[C@H]1O[C@@H](SC(c2nccnc2Cl)C2(O)CCC(F)(F)CC2)[C@H](O)[C@@H](n2cc(-c3cc(F)c(F)c(F)c3)nn2)[C@H]1O (some centres unmarked)

Solution:
[4.32, 6.35]
